Attribution: the supplement of paper PMC7156485

Test system: TDF
test-method-notes: cell number relative to DMSO (% of DMSO); higher = more cells (less growth inhibition / toxicity);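 note: TDF denotes transformed human dermal fibroblasts of mesenchymal origin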
experimental-conditions: concentration: 10 µM; 24 h
readout-name: cell number

molecule: COc1cc2c(cc1OC)[C@H]1CC(=O)[C@H](CC(C)C)CN1CC2
measured-result: 102

molecule: CCC1(c2ccc(N)cc2)CCC(=O)NC1=O (racemic) [DL-Aminoglutethimide]
measured-result: 102

molecule: CP(=O)([O-])C1=CC[NH2+]CC1
measured-result: 98.6

---

Tested on: HCC1569
test-method-notes: cell number relative to DMSO (% of DMSO); higher = more cells (less growth inhibition / toxicity)
experimental-conditions: concentration: 10 µM; 24 h

compound: CCCCCC=CCC=CCC=CCCCCCCC(=O)NCCO [Anandamide (20:3,n-6)]
cell number: 101
//
compound: COc1cc(C=C(C#N)C#N)cc(O)c1O [Tyrphostin AG 34]
cell number: 102
//
compound: CC(C)(C)c1o[nH]c(=O)c1CC(N)C(=O)O (stereo not given)
cell number: 98.3
//
compound: O=C1CCCC2C3CCCN4CCCC(CN12)C34 (stereo not given) [Matrine]
cell number: 100
//
compound: COc1ccc(C(CN(C)C)C2(O)CCCCC2)cc1 (stereo not given) [Venlafaxine]
cell number: 102
//
compound: CN(C)C(=O)Oc1ccc[n+](C)c1.[Br-] [Pyridostigmine bromide]
cell number: 103
//
compound: CCCN(CCC)C1CCc2c(F)ccc(O)c2C1.Cl (stereo not drawn) [R(+)-UH-301 hydrochloride]
cell number: 103
//
compound: CS(=O)(=O)O.O.Oc1ccc2c3c1OC1c4oc5ccccc5c4CC4(O)C(C2)N(CC2CC2)CCC314 (stereo not given) [Naltriben methanesulfonate hydrate]
cell number: 98.9
//
compound: Br.CN1CCc2cc(O)cc3c2C1Cc1ccc(O)c(O)c1-3 (stereo not drawn) [R(-)-2,10,11-Trihydroxyaporphine hybrobromide]
cell number: 99
//
compound: CC(=O)OC1CC2CCC3C(CCC4(C)C3CC([N+]3(C)CCCCC3)C4OC(C)=O)C2(C)CC1[N+]1(C)CCCCC1.[Br-].[Br-] (stereo not given) [Pancuronium.2Br]
cell number: 100

---

System: HCC1569
test-method-notes: cell number relative to DMSO (% of DMSO); higher = more cells (less growth inhibition / toxicity)
experimental-conditions: concentration: 10 µM; 24 h

compound: Cl.NCCc1c[nH]c2ccc(O)cc12 [Serotonin hydrochloride]
cell number: 102

compound: CC1CCC2N(C1)CC1C3CC4C(CC(=O)C5CC(O)CCC54C)C3CCC1C2(C)O (stereo not given)
cell number: 102

compound: CC(C)N(CCC(C(N)=O)(c1ccccc1)c1ccccn1)C(C)C (stereo not given) [Disopyramide]
cell number: 99.8

compound: CCN(C)C(=O)Oc1cccc(C(C)N(C)C)c1 (stereo not given)
cell number: 102

compound: CN1CC(CNC(=O)OCc2ccccc2)CC2c3cccc4c3c(cn4C)CC21 (stereo not given)
cell number: 97.2

---

System: TDF
test-method-notes: cell number relative to DMSO (% of DMSO); higher = more cells (less growth inhibition / toxicity)
experimental-conditions: concentration: 10 µM; 24 h
Each entry below carries its reported cell number.

compound: COC(=O)N1CCN(C(=O)Cc2ccc(Cl)c(Cl)c2)C(CN2CCCC2)C1.O=C(O)C=CC(=O)O (stereo not given)
cell number: 102
--
compound: CC1CCC2(NC1)OC1CC3C4CCC5CC(O)CCC5(C)C4CCC3(C)C1C2C (stereo not given)
cell number: 102
--
compound: COc1cc2c3cc1Oc1c(OO)c(OC)cc4c1C(Cc1ccc(cc1)Oc1cc(ccc1O)CC3N(C)CC2)N(C)CC4.O=S(=O)(O)O (stereo not given) [Oxyacanthine sulfate]
cell number: 11.7
--
compound: C=CC1CN2CCC1CC2C(O)c1ccnc2ccccc12 (single isomer, unassigned; (-)) [(-)-Cinchonidine]
cell number: 99.7
--
compound: Clc1ccc(C2CC3CCC2N3)cn1 (racemic)
cell number: 96.3
--
compound: COc1ccc(Cc2nccc3cc(OC)c(OC)cc23)cc1OC.Cl [Papaverine hydrochloride]
cell number: 77.7
--
compound: C[N+]1(C)C2CC(OC(=O)C(CO)c3ccccc3)CC1C1OC12.O=[N+]([O-])[O-] (single isomer, unassigned; (-)) [(-)-Scopolamine methyl nitrate]
cell number: 98.7
--
compound: CC12C(=O)OC(=O)C1(C)C1CCC2O1 (stereo not given)
cell number: 10.9
--
compound: COc1ccc2c(c1)[nH]c1c(C)nccc12
cell number: 94.9
--
compound: CP(=O)(O)CCCN.Cl
cell number: 98.3
--
compound: CC1=C2C(=O)C3C(CC=C4CC(O)CCC43C)C2CCC12OC1CC(C)CNC1C2C (stereo not given)
cell number: 104
--
compound: COCC1OC(=O)c2coc3c2C1(C)C1=C(C3=O)C2CCC(=O)C2(C)CC1OC(C)=O (stereo not given) [Wortmannin from Penicillium funiculosum]
cell number: 100
--
compound: CC(C)=CCCC1(C)C=Cc2c(O)c3c(c(CC=C(C)C)c2O1)OC12C(=CC4CC1C(C)(C)OC2(CC=C(C)C(=O)O)C4=O)C3=O (stereo not given)
cell number: 10.6
--
compound: Cl.NCCc1c[nH]c2ccccc12 [Tryptamine hydrochloride]
cell number: 98.5
--
compound: Cl.NNC(N)=O [Semicarbazide hydrochloride]
cell number: 111
